# Tested on: Danio rerio larvae (5 dpf)
# EXPERIMENTAL_PROTOCOL: difference in startle response vs DMSO (percentage points); higher = stronger startle than DMSO
# MEASUREMENT_CONDITIONS: 10 µM; exposure time 6 h
Structures can show the parent of a compound that is named as a salt.
MEASURED_ENDPOINT: difference in startle response
A bare number is all that is needed in reply.

Consider the reported difference in startle response for these molecules:
MOLECULE | difference in startle response
CC(C)n1c(/C=C/C(O)CC(O)CC(=O)O)c(-c2ccc(F)cc2)c2ccccc21 (centres undefined) [Fluvastatin (sodium salt hydrate)] | -2.51
CC(=O)OC(C)C[N+](C)(C)C (stereo not drawn) [Acetyl-β-methylcholine (chloride)] | 1.22
Cc1[nH]c(=O)c(C#N)cc1-c1ccncc1 | -1.03

Let's switch to this molecule now.
[in] // lookup difference in startle response for `COc1cc(C)c(/C=C/C(C)=C/C=C/C(C)=C/C(=O)O)c(C)c1C`
[out] -12.5

---

difference in activity during first hour values for the compounds below.
# System: Danio rerio larvae (5 dpf)
# EXPERIMENTAL_PROTOCOL: difference in activity during first hour vs DMSO (percentage points); higher = more activity than DMSO
# MEASUREMENT_CONDITIONS: 10 µM; exposure time 6 h
Structures can show the parent of a compound that is named as a salt.
A bare number is all that is needed in reply.

Consider the reported difference in activity during first hour for these compounds:
COMPOUND | MEASURED_ENDPOINT | NUMERIC_READOUT
Clc1ccc2c(c1)C(N1CCNCC1)=Nc1ccccc1O2 | difference in activity during first hour | 35.7
O=C1CC2(CCCC2)CC(=O)N1CCCCN1CCN(c2ncccn2)CC1 [Buspirone (hydrochloride)] | difference in activity during first hour | -8.4
CN(C)c1cc(NC(=O)CNC(C)(C)C)c(O)c2c1C[C@H]1C[C@H]3[C@H](N(C)C)C(O)=C(C(N)=O)C(=O)[C@@]3(O)C(O)=C1C2=O | difference in activity during first hour | -22.5
CS(=O)(=O)OCCCCOS(C)(=O)=O | difference in activity during first hour | 2.59
Cc1cc(C(C)(C)C)c(O)c(C)c1CC1=NCCN1 [Oxymetazoline (hydrochloride)] | difference in activity during first hour | -13.2

Let's switch to this compound now.
[in] // lookup difference in activity during first hour for `C=C1/C(=C\C=C2/CCC[C@]3(C)[C@@H]([C@H](C)CCCC(C)(C)O)CC[C@@H]23)C[C@@H](O)C[C@@H]1O`
[out] -9.65

---

# Tested on: Danio rerio larvae (5 dpf)
# EXPERIMENTAL_PROTOCOL: difference in startle response vs DMSO (percentage points); higher = stronger startle than DMSO
# MEASUREMENT_CONDITIONS: 10 µM; exposure time 6 h
Where a name gives a salt, the structure may show the parent alone.
MEASURED_ENDPOINT: difference in startle response

COMPOUND | difference in startle response
Cc1ccc(C(=O)c2cc(O)c(O)c([N+](=O)[O-])c2)cc1 | -9.07

[in] // lookup difference in startle response for `Cn1c(=O)c2[nH]cnc2n(C)c1=O`
[out] 6.97

[in] // lookup difference in startle response for CCCCC[C@](C)(O)/C=C/[C@@H]1[C@@H](C/C=C\CCCC(=O)O)[C@@H](O)C[C@H]1O [15(S)-15-methyl Prostaglandin F2α]
[out] 0.545

[in] // lookup difference in startle response for `COC(=O)C1=C(C)NC(C)=C(C(=O)OC)C1c1ccccc1[N+](=O)[O-]`
[out] -1.47

[in] // lookup difference in startle response for `Nc1ccn([C@@H]2CS[C@H](CO)O2)c(=O)n1`
[out] 2.66

[in] // lookup difference in startle response for CN1CCC[C@H]1c1cccnc1 (racemic) [(±)-Nicotine]
[out] -8.45

[in] // lookup difference in startle response for Cc1cn[nH]c1 [Fomepizole]
[out] -0.451

[in] // lookup difference in startle response for `Cc1c(O)c(=O)ccn1C`
[out] -1.15

[in] // lookup difference in startle response for `Nc1ncn([C@@H]2O[C@H](CO)[C@@H](O)[C@H]2O)c(=O)n1`
[out] -4.41

[in] // lookup difference in startle response for CCOc1ccccc1OCCN[C@H](C)Cc1ccc(OC)c(S(N)(=O)=O)c1 [Tamsulosin (hydrochloride)]
[out] 3.47

[in] // lookup difference in startle response for `COc1cc2c(cc1Cc1cccc(Cl)c1F)c(=O)c(C(=O)O)cn2[C@H](CO)C(C)C`
[out] -9.84

[in] // lookup difference in startle response for NS(=O)(=O)c1cc(Cl)c(Cl)c(S(N)(=O)=O)c1 [Dichlorphenamide]
[out] -2.89

[in] // lookup difference in startle response for CC(=O)O[C@@]12CO[C@@H]1C[C@H](O)[C@@]1(C)C(=O)[C@H](O)C3=C(C)[C@@H](OC(=O)[C@H](O)[C@@H](NC(=O)OC(C)(C)C)c4ccccc4)C[C@@](O)([C@@H](OC(=O)c4ccccc4)[C@H]21)C3(C)C [Docetaxel (hydrate)]
[out] -2.23

[in] // lookup difference in startle response for `CCCCCOc1ccc(-c2ccc(-c3ccc(C(=O)N[C@H]4C[C@@H](O)[C@@H](O)NC(=O)[C@@H]5[C@@H](O)[C@@H](C)CN5C(=O)[C@H]([C@@H](C)O)NC(=O)[C@H]([C@H](O)[C@@H](O)c5ccc(O)cc5)NC(=O)[C@@H]5C[C@@H](O)CN5C(=O)[C@H]([C@@H](C)O)NC4=O)cc3)cc2)cc1`
[out] -9.61

[in] // lookup difference in startle response for CN1CC2c3ccccc3Oc3ccc(Cl)cc3C2C1 (racemic) [(±)-Asenapine]
[out] -0.436

---

difference in excitability values for the molecules below.
# Tested on: Danio rerio larvae (5 dpf)
# EXPERIMENTAL_PROTOCOL: difference in excitability vs DMSO (percentage points); higher = more excitable than DMSO
# MEASUREMENT_CONDITIONS: 10 µM; exposure time 6 h
Structures can show the parent of a compound that is named as a salt.

Consider the reported difference in excitability for these molecules:
MOLECULE | difference in excitability
CCCCC(C)(O)C/C=C/[C@H]1[C@H](O)CC(=O)[C@@H]1CCCCCCC(=O)OC (mixture of isomers) | 9.78
Cc1ccsc1C(=CCCN1CCC[C@@H](C(=O)O)C1)c1sccc1C [Tiagabine (hydrochloride)] | 6.86
CC(C)(O)c1ccccc1CC[C@@H](SCC1(CC(=O)O)CC1)c1cccc(/C=C/c2ccc3ccc(Cl)cc3n2)c1 [Montelukast (sodium salt)] | 10.4

[in] // lookup difference in excitability for Cn1c(=O)cc(N2CCC[C@@H](N)C2)n(Cc2ccccc2C#N)c1=O [Alogliptin (benzoate salt)]
[out] 9.09

[in] // lookup difference in excitability for CC[C@]1(O)C[C@@H]2CN(CCc3c([nH]c4ccccc34)[C@@](C(=O)OC)(c3cc4c(cc3OC)N(C)[C@H]3[C@@](O)(C(=O)OC)[C@H](OC(C)=O)[C@]5(CC)C=CCN6CC[C@]43[C@@H]65)C2)C1 [Vinblastine (sulfate)]
[out] 11.1

[in] // lookup difference in excitability for `COC(=O)N(C)c1c(N)nc(-c2nn(Cc3ccccc3F)c3ncccc23)nc1N`
[out] 1.63

[in] // lookup difference in excitability for `Cc1ccc(=O)n(-c2ccccc2)c1`
[out] -2.03

[in] // lookup difference in excitability for `COc1cc(C)c(/C=C/C(C)=C/C=C/C(C)=C/C(=O)O)c(C)c1C`
[out] 6.34

[in] // lookup difference in excitability for CC(C(=O)O)c1cccc(C(=O)c2ccccc2)c1 (racemic) [(±)-Ketoprofen]
[out] 0.309

[in] // lookup difference in excitability for CC(C)NCC(O)COc1ccc(COCCOC(C)C)cc1 (stereo not given) [Bisoprolol (hemifumarate)]
[out] 2.44

[in] // lookup difference in excitability for CC(=O)NS(=O)(=O)c1ccc(N)cc1 [Sulfacetamide (sodium salt)]
[out] 9.42

---

# Tested on: Danio rerio larvae (5 dpf)
# EXPERIMENTAL_PROTOCOL: difference in startle response vs DMSO (percentage points); higher = stronger startle than DMSO
# MEASUREMENT_CONDITIONS: 10 µM; exposure time 6 h
Where a name gives a salt, the structure may show the parent alone.
MEASURED_ENDPOINT: difference in startle response
A bare number is all that is needed in reply.

COMPOUND | MEASURED_ENDPOINT | NUMERIC_READOUT
Nc1cc(Cl)c(N=C2NCCN2)c(Cl)c1 [Apraclonidine (hydrochloride)] | difference in startle response | 7.97
CNCc1ccc(-c2[nH]c3cc(F)cc4c3c2CCNC4=O)cc1 [Rucaparib] | difference in startle response | 5.43
COc1cc(C(=O)NS(=O)(=O)c2ccccc2C)ccc1Cc1cn(C)c2ccc(NC(=O)OC3CCCC3)cc12 [Zafirlukast] | difference in startle response | -0.95

[in] What value of difference in startle response on Danio rerio larvae (5 dpf) does OCc1cc(C(O)CNCCCCCCOCCCCc2ccccc2)ccc1O (stereo not drawn) [Salmeterol (xinafoate)] have?
[out] -5.05

[in] What value of difference in startle response on Danio rerio larvae (5 dpf) does CO/N=C(\C(=O)N[C@@H]1C(=O)N2C(C(=O)O)=C(COC(C)=O)CS[C@H]12)c1csc(N)n1 [Cefotaxime (sodium salt)] have?
[out] 0.752

[in] What value of difference in startle response on Danio rerio larvae (5 dpf) does O=c1[nH]c(=O)n([C@H]2C[C@H](O)[C@@H](CO)O2)cc1C(F)(F)F [Trifluorothymidine] have?
[out] -3.06

[in] What value of difference in startle response on Danio rerio larvae (5 dpf) does O=C1CN(/N=C/c2ccc([N+](=O)[O-])o2)C(=O)N1 [Nitrofurantoin] have?
[out] -2.07

[in] What value of difference in startle response on Danio rerio larvae (5 dpf) does CC1=C(C(=O)O)N2C(=O)[C@@H](NC(=O)[C@H](N)c3ccccc3)[C@H]2SC1 [Cephalexin] have?
[out] 7.97

Source: the supplement of paper PMC10515830
